Target: human FAAH (Fatty Acid Amide Hydrolase) (Homo sapiens, UniProt O00519)
Construct: The full length FAAH was subcloned into the mammalian expression vector, pcDEF.neo, using XbaI and EcoRI restriction sites; expressed in transfected cells
Sequence (O00519 whole entry): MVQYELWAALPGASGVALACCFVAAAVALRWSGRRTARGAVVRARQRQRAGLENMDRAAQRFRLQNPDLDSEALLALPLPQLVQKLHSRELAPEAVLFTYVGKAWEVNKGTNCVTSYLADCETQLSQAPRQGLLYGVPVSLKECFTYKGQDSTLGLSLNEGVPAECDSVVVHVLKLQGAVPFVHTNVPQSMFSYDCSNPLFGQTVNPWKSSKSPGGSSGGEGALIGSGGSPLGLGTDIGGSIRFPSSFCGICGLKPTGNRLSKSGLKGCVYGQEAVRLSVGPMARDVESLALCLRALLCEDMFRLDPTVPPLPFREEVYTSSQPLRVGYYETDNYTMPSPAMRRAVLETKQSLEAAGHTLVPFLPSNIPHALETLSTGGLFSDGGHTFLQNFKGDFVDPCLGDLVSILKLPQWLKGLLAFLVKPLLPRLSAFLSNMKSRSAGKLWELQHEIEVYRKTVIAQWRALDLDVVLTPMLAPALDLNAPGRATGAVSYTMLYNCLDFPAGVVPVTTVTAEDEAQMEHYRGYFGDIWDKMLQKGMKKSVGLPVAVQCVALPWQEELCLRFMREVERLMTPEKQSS
Assay: FAAH whole cell assay on CHO cells expressing human FAAH (human WC), AAMCA fluorescent substrate
Type: cell-based
Conditions: human FAAH_CHO whole cell
Measured IC50 of individual entries
Just so you know, I need the unit written after the number.

Consider the worked cases shown below.
In [3]: df
Out[3]:
                                   compound                     target_or_test_system  measured_result
0  Clc1ccc(Sc2c(-c3ccc4c(c3)OCCO4)[nH]c3ncccc23)nc1  human FAAH (Fatty Acid Amide Hydrolase) (Homo sapiens, UniProt O00519)            13 nM
1  O[C@H]1CC[C@H](c2[nH]c3ncccc3c2Sc2ccc(Cl)cc2)CC1  human FAAH (Fatty Acid Amide Hydrolase) (Homo sapiens, UniProt O00519)          9.16 nM
2  COc1cc(-c2[nH]c3ncccc3c2Sc2ccc(Cl)cc2)cnc1OC  human FAAH (Fatty Acid Amide Hydrolase) (Homo sapiens, UniProt O00519)          16.2 nM
3  COc1cc(-c2nc3n(C)cccc-3c2Sc2ccc(Cl)cc2)cnc1OC  human FAAH (Fatty Acid Amide Hydrolase) (Homo sapiens, UniProt O00519)          72.7 nM
4  Clc1ccc(Sc2c(-c3ccnc4[nH]ccc34)[nH]c3ncccc23)cc1  human FAAH (Fatty Acid Amide Hydrolase) (Homo sapiens, UniProt O00519)            30 nM
5  Cn1cccc2c(Sc3ccc(Cl)cc3)c(C(=O)Nc3ccc4c(c3)OCCO4)nc1-2  human FAAH (Fatty Acid Amide Hydrolase) (Homo sapiens, UniProt O00519)          1340 nM
6  O=C(Nc1ccc2c(c1)OCCO2)c1[nH]c2ncccc2c1Sc1ccc(Cl)cc1  human FAAH (Fatty Acid Amide Hydrolase) (Homo sapiens, UniProt O00519)          28.5 nM
7  CC(O)c1ccc(-c2[nH]c3ncccc3c2Sc2ccc(Cl)cc2)cc1 (stereo not drawn)  human FAAH (Fatty Acid Amide Hydrolase) (Homo sapiens, UniProt O00519)          27.1 nM

Inquiry: Could you share which IC50 value was measured for NC(=O)CCn1cccc2c(Sc3ccc(Cl)cc3)c(-c3ccc4c(c3)OCO4)nc1-2 ?
Reply text: 1390 nM
